Cited source for all entries: patent US20260306640A1

# ASSAY_SYSTEM: KAT2B (Homo sapiens, UniProt Q92831)
# Sequence (Q92831 whole entry): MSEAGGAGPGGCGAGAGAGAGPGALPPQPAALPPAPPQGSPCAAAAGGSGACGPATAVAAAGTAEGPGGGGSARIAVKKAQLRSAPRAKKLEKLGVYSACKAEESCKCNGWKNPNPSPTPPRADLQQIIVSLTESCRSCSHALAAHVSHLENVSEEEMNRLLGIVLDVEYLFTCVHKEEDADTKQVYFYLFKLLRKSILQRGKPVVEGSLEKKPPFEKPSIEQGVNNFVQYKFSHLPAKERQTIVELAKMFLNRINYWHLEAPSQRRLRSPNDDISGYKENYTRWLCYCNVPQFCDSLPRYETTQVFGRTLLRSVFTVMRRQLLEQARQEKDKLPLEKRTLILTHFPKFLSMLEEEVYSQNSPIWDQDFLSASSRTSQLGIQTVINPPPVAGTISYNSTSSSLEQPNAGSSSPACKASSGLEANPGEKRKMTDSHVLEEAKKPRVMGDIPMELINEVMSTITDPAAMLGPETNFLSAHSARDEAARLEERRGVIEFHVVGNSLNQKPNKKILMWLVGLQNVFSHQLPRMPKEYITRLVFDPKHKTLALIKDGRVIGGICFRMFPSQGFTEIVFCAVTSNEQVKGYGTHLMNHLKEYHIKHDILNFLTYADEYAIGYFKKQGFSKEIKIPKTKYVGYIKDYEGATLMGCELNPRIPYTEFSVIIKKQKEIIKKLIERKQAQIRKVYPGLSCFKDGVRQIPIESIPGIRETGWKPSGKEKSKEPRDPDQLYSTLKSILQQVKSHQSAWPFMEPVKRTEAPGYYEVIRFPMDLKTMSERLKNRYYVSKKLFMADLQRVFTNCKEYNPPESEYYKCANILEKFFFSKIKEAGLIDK
# TEST_PROTOCOL: KAT2B degradation, Western Blot (Jess), NCI-H1048 cells
# Format: cell-based
# Set-up: degrader, Western blot (Jess)
# CONDITION_DESCRIPTION: NCI-H1048 cells, KAT2B, 24 h, Western Blot, vs DMSO; read-out: KAT2B NCI-H1048 DC50
READOUT_NAME: DC50

Qu. Could you share which DC50 value was measured for Cc1cc(N2CCC3(CCN(C(=O)c4ccc([C@H]5C[C@@H](Nc6cnn(C)c(=O)c6Cl)CN(C)C5)cc4)CC3)CC2)ccc1OC1CCC(=O)NC1=O (stereo partly shown) ?
Ans. < 1 nM

Qu. How about this compound: CN1C[C@H](Nc2cnn(C)c(=O)c2Cl)C[C@H](c2ccc(C(=O)N3CCC4(CC3)CCN(c3ccc(OC5CCC(=O)NC5=O)cn3)CC4)cc2)C1 (stereo partly shown)
Ans. > 30 nM

Qu. How about this compound: Cc1cc(C2CCC(=O)NC2=O)cnc1N1CCC2(CCN(C(=O)c3ccc([C@H]4C[C@@H](Nc5cnn(C)c(=O)c5Br)CN(C)C4)cc3)CC2)CC1 (stereo partly shown)
Ans. < 1 nM

Qu. How about this compound: CN1C[C@H](Nc2cnn(C)c(=O)c2Cl)C[C@H](c2ccc(C(=O)N3CCC4(CC3)CCN(c3ccc(C5CCC(=O)NC5=O)c(F)c3F)CC4)cc2)C1 (stereo partly shown)
Ans. 1 to 30 nM

Now let's try a different one.
Qu. Could you share which DC50 value was measured for Cc1cc(N2CCC3(CCN(C(=O)c4ccc([C@H]5C[C@@H](Nc6cnn(C)c(=O)c6C)CN(C)C5)cc4)CC3)CC2)ccc1C1CCC(=O)NC1=O (stereo partly shown) ?
Ans. < 1 nM

====

Listed below: DC50 values for each entry.
# ASSAY_SYSTEM: UniProt:Q92830
# Sequence (Q92830 whole entry): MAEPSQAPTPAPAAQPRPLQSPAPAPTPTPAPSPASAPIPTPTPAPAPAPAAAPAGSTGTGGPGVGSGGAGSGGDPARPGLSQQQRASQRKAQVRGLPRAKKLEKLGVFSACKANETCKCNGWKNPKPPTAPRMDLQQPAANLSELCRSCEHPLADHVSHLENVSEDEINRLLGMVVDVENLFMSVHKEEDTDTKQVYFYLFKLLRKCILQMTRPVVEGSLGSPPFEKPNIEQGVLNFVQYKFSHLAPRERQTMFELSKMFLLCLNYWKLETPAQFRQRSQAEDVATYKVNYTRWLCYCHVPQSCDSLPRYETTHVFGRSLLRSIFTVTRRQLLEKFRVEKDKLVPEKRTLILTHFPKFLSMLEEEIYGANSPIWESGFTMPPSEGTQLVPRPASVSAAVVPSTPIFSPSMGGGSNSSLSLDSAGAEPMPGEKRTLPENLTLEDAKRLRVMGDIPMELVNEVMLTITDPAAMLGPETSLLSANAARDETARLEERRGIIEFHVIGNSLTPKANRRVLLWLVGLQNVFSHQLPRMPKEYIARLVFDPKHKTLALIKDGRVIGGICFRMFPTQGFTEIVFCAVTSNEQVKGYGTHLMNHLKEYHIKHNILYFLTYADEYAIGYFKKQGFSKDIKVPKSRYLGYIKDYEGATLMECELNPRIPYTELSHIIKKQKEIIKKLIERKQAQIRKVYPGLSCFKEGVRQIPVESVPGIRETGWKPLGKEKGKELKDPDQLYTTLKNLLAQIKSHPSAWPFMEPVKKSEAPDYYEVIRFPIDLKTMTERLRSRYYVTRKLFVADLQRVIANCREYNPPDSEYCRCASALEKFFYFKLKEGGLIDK
# TEST_PROTOCOL: KAT2A degradation, Western Blot (Jess), MOLM-13 cells
# Format: cell-based
# Design: degrader, Western blot
# CONDITION_DESCRIPTION: MOLM-13 cells, KAT2A, 24 h, Western Blot, vs DMSO; read-out: KAT2A MOLM-13 DC50

Qu. Could you share which DC50 value was measured for CN1C[C@H](Nc2cnn(C)c(=O)c2Cl)C[C@H](c2ccc(CN3CCC4(CC3)CCN(c3ccc(C5CCC(=O)NC5=O)cc3)CC4)cc2)C1 (stereo partly drawn) ?
Ans. < 1 nM

Qu. How about this molecule: CN1C[C@H](Nc2cnn(C)c(=O)c2Br)C[C@H](c2ccc(CN3CCC(c4ccc(OC5CCC(=O)NC5=O)cc4)CC3)cc2)C1 (stereo partly drawn)
Ans. 1 to 30 nM

Qu. How about this molecule: CN1C[C@H](Nc2cnn(C)c(=O)c2Cl)C[C@H](c2ccc(C(=O)N3CCC4(CC3)CCN(c3ccc(C5CCC(=O)NC5=O)cc3)CC4)cc2)C1 (stereo partly drawn)
Ans. < 1 nM

Qu. How about this molecule: CN1C[C@H](Nc2cnn(C)c(=O)c2Br)C[C@H](c2ccc(C(=O)N3CC(c4ccc5c(c4)CN(C4CCC(=O)NC4=O)C5=O)C3)cc2)C1 (stereo partly drawn)
Ans. < 1 nM

Qu. How about this molecule: CN1C[C@H](Nc2cnn(C)c(=O)c2Br)C[C@H](c2ccc(C(=O)N3CCN(c4ccc(F)c(C5CCC(=O)NC5=O)c4)CC3)cc2)C1 (stereo partly drawn) [Compound 143]
Ans. < 1 nM

Further cases:
Qu. Could you share which DC50 value was measured for CN1C[C@H](Nc2nn(C)c(=O)c3cccnc23)C[C@H](c2ccc(C(=O)N3CCN(Cc4ccc(C(=O)Nc5cccc6c5C(=O)N(C5CCC(=O)NC5=O)C6=O)cc4)CC3)cc2)C1 (stereo partly drawn) ?
Ans. > 30 nM

Qu. How about this molecule: CN1C[C@H](Nc2cnn(C)c(=O)c2Br)C[C@H](c2ccc(CN3CC4(C3)CN(c3ccc(C5CCC(=O)NC5=O)cc3)C4)cc2)C1 (stereo partly drawn)
Ans. 1 to 30 nM

Qu. How about this molecule: CN1C[C@H](Nc2cnn(C)c(=O)c2Br)C[C@H](c2ccc(C(=O)N3CCC4(CCN(c5ccc6c(c5)C(=O)N(C5CCC(=O)NC5=O)C6=O)C4)C3)cc2)C1 (stereo partly drawn)
Ans. 1 to 30 nM

Qu. How about this molecule: CN1C[C@H](Nc2cnn(C)c(=O)c2Br)C[C@H](c2ccc(CN3CCN(c4ccc(F)c(C5CCC(=O)NC5=O)c4)CC3)cc2)C1 (stereo partly drawn)
Ans. 1 to 30 nM

====

# ASSAY_SYSTEM: KAT2B (Homo sapiens, UniProt Q92831)
# TEST_PROTOCOL: KAT2B degradation, Western Blot (Jess), NCI-H1048 cells
# Format: cell-based
# Parameters: degrader, Western blot (Jess)
# CONDITION_DESCRIPTION: NCI-H1048 cells, KAT2B, 24 h, Western Blot, vs DMSO; read-out: KAT2B NCI-H1048 DC50
Listed below: DC50 values for each entry.

Some compounds with known DC50 results, for comparison:
Qu. Could you share which DC50 value was measured for CN1C[C@H](Nc2cnn(C)c(=O)c2Br)C[C@H](c2ccc(C(=O)N3CCC(c4ccc5c(C6CCC(=O)NC6=O)nccc5c4)CC3)cc2)C1 (some centres unmarked) [Compound 377] ?
Ans. > 30 nM

Qu. How about this compound: Cc1c(N[C@@H]2C[C@H](c3ccc(CN4CCN(c5cc(C6CCC(=O)NC6=O)ccn5)CC4)cc3)CN(C)C2)cnn(C)c1=O (some centres unmarked) [Compound 357]
Ans. > 30 nM

Further cases:
Qu. Could you share which DC50 value was measured for Cc1c(N[C@@H]2C[C@H](c3ccc(C(=O)N4CCC5(CC4)CCN(c4ccc(C6CCC(=O)NC6=O)c(F)c4F)CC5)cc3)CN(C)C2)cnn(C)c1=O (some centres unmarked) [Compound 252] ?
Ans. 1 to 30 nM

Qu. How about this compound: CN1C[C@H](Nc2cnn(C)c(=O)c2Br)C[C@H](c2ccc(C(=O)N3CCC(Cc4ccc(C5CCC(=O)NC5=O)c(F)c4)CC3)cc2)C1 (some centres unmarked) [Compound 328]
Ans. < 1 nM

Qu. How about this compound: Cc1c(N[C@@H]2C[C@H](c3ccc(C(=O)N4CCC5(CC4)CCN(c4ccc(C6CCC(=O)NC6=O)cc4)CC5)cc3)CN(C)C2)cnn(C)c1=O (some centres unmarked) [Compound 186]
Ans. < 1 nM
